Biological target: Serine/threonine-protein kinase B-raf (Homo sapiens, UniProt P15056, V600E)
Sequence (P15056 2-766 V600E limits assumed): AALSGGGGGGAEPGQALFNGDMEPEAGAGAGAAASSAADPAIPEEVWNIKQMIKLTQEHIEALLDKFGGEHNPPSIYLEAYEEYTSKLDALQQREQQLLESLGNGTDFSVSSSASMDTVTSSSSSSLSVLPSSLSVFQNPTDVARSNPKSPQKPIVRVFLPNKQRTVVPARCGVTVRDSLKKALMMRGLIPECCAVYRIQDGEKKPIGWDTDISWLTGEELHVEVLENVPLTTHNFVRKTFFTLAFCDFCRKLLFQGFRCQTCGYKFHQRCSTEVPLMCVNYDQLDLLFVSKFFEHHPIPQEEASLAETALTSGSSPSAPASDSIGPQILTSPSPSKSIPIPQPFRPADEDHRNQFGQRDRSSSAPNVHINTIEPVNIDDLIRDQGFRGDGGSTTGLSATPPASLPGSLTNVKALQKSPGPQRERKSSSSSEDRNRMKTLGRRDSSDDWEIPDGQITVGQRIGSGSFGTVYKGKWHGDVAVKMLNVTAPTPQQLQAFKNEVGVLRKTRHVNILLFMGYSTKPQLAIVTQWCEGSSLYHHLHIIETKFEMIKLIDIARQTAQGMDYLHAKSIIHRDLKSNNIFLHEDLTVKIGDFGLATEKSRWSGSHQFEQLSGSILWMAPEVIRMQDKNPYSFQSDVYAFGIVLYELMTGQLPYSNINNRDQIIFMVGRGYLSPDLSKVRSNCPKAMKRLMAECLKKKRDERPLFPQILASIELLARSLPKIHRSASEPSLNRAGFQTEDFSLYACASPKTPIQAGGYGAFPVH
Experiment: Inhibition of B-Raf V600E mutant in human Malme-3M cells assessed as ERK phosphorylation
Type: cell-based
pIC50: −log10 of the molar value.
observable: pIC50

Please review the following examples before continuing.
>>> df
                                  molsmiles  observable  recordedresult
0  CC(C)(C#N)c1cccc(C(=O)Nc2ccc(F)c(C(=O)Nc3cnc4[nH]ccc4c3)c2F)c1       pIC50            6.36
1  COc1n[nH]c2ncc(NC(=O)c3cccc(NC(=O)c4cccc(C(C)(C)C#N)c4)c3F)cc12       pIC50            5.74

1: COc1n[nH]c2ncc(NC(=O)c3cc(C(=O)Nc4cccc(C(F)(F)F)c4)ccc3C)cc12
2: COc1n[nH]c2ncc(NC(=O)c3c(F)ccc(NC(=O)c4cccc(C(C)(C)C#N)c4)c3F)cc12
query: From the recorded data, which exceeds the other in pIC50: 1 or 2 ? Write down the label attached to your selection.
result: 1
(1: 7.28, 2: 6.74)
